# assayed-system: Corticotropin-releasing factor receptor 2/Corticotropin-releasing factor-binding protein (Homo sapiens, UniProt P24387+Q13324)
# Sequence (Q13324 whole entry): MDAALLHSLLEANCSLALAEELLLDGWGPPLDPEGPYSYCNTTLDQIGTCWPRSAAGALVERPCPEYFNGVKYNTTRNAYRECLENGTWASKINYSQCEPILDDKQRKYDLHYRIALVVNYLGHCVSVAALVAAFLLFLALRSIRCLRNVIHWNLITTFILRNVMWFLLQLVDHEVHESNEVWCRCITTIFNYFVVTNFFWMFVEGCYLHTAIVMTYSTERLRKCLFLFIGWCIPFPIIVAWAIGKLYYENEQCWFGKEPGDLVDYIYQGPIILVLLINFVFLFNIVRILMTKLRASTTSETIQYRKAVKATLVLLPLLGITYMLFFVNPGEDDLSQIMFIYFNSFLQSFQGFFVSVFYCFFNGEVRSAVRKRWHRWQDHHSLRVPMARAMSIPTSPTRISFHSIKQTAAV
# Sequence (P24387 whole entry): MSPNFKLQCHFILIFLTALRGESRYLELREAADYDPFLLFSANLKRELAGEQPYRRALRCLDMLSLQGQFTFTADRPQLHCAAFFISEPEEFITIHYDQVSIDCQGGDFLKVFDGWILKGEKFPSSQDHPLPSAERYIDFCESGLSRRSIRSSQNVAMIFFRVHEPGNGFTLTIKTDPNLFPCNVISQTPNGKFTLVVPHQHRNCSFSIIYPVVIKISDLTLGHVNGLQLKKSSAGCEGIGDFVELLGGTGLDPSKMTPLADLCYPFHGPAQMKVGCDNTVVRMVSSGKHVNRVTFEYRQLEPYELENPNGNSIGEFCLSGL
# assay-explanation: activators of CRF receptor 2 with binding protein – uHTS hits, confirmation (AID 602473)
# Type: functional
# experimental-context: read-out: EC50_Mean
Activity calls are given as the source filed them. Rule as the data show it: actives have a measured EC50 and inactives only a lower limit.
Possible outcomes: active, inactive

>  <compound>
CC1=C(C(=O)OC(C)(C)C)C(c2cccc3ccccc23)NC(=O)N1 (configuration not stated)

>  <group-label>
inactive

$$$$
>  <compound>
CCCN(C(=O)CSc1n[nH]c(-c2ccc(OC)cc2)n1)c1c(N)n(Cc2ccccc2)c(=O)[nH]c1=O

>  <group-label>
inactive

$$$$
>  <compound>
COC(=O)C(NC(=O)c1ccc(OC)cc1)(Nc1ncc(S(=O)(=O)c2ccc([N+](=O)[O-])cc2)s1)C(F)(F)F (configuration not stated)

>  <group-label>
inactive

$$$$
>  <compound>
CCN(CCO)Cc1csc2cccc(Br)c12

>  <group-label>
inactive

$$$$
>  <compound>
Brc1ccccc1-c1nnc(CSc2nnnn2-c2ccccc2)o1

>  <group-label>
inactive

$$$$
>  <compound>
COc1ccc2c(CC#N)c[nH]c2c1

>  <group-label>
inactive

$$$$
>  <compound>
NC(=S)N/N=C/c1ccc(-c2ccc(SC(F)F)cc2)o1

>  <group-label>
inactive

$$$$
>  <compound>
C=CCC[C@H](Cc1ccc(F)cc1)C(=O)OC[C@H](Cc1c[nH]c2ccccc12)NC(=O)[C@@H](CC=C)CC(=O)NCCO

>  <group-label>
active

$$$$
>  <compound>
CCc1ccc(S(=O)(=O)NCC2(N3CCOCC3)CCCCC2)cc1

>  <group-label>
active

$$$$
>  <compound>
CN(C)c1c([N+](=O)[O-])ncn1C

>  <group-label>
inactive

$$$$
>  <compound>
CCOC(=O)c1c(NC(=O)c2c(Br)cnn2C)c(C#N)nn1-c1ccccc1

>  <group-label>
inactive

$$$$
>  <compound>
Nc1c(C(=O)Nc2nccs2)sc2nc(-c3cccs3)cc(C(F)(F)F)c12

>  <group-label>
active

$$$$
>  <compound>
CC(=O)Nc1ccc(NC(=O)C(C)OC(=O)C2CCCCC2)cc1 (configuration not stated)

>  <group-label>
inactive

$$$$
>  <compound>
CC(C)CC(NC(=O)/C(=C/c1ccco1)NC(=O)c1ccc(Br)o1)C(=O)O (configuration not stated)

>  <group-label>
inactive

$$$$
>  <compound>
O=C(COC(=O)c1cnc(Cl)c(Cl)c1)NCCC1=CCCCC1

>  <group-label>
inactive

$$$$
>  <compound>
COc1ccc(C2=NN(C)/C(=N\Cc3ccccc3)SC2)cc1

>  <group-label>
inactive

$$$$
>  <compound>
Cn1nc(N)c2ncc(C(Cl)(Cl)Cl)nc21

>  <group-label>
inactive

$$$$
